assay: PBPK model parameters optimized or assumed (Simcyp minimal PBPK); set-up: species or system human; settings: human, microsomal incubation; assumed equal to fu,p; read-out: fu,mic/fu,inc
Recorded endpoint: fraction unbound

Q: Fill in fraction unbound for record Cc1ccc(C(=O)Nc2ccc(CN3CCN(C)CC3)c(C(F)(F)F)c2)cc1C#Cc1cnc2[nH]ncc2c1 [olverembatinib, Olverembatinib]
A: 0.0005

====

molecular target: CYP3A4 (Homo sapiens); test: Clinical DDI study with itraconazole and rifampicin in healthy American (White) subjects; conditions: human, plasma, oral, Cmax Obs., coadministration with rifampicin, healthy White volunteers
Sequence (P08684 whole entry): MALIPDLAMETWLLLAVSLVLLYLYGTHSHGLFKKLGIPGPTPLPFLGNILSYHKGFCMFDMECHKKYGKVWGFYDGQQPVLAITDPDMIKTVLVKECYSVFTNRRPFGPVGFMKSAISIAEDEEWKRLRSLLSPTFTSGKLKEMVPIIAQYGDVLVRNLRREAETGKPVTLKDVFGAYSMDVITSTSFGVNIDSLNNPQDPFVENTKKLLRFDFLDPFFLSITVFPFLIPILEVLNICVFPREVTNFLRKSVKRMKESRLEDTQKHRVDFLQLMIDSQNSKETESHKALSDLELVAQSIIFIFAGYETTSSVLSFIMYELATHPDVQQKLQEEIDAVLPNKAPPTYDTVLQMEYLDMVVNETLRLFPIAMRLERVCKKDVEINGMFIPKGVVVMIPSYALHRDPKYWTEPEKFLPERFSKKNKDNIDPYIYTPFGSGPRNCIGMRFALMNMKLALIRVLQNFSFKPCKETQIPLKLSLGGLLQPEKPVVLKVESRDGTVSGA
Recorded endpoint: Cmax

Q: // Input: `Cc1ccc(C(=O)Nc2ccc(CN3CCN(C)CC3)c(C(F)(F)F)c2)cc1C#Cc1cnc2[nH]ncc2c1` . Output its Cmax only.
A: 4.54 ng/mL

====

experiment: Food effect clinical study in Chinese patients with CML (NCT03882281); format: in vivo, human; details: human, plasma, oral, 30 mg, Chinese CML patients, fasting, 30 mg SD
Recorded endpoint: Cmax (ng/mL)
Field format: number, assumed ng/mL, no unit text.

Q: Supply Cmax value. Item: `Cc1ccc(C(=O)Nc2ccc(CN3CCN(C)CC3)c(C(F)(F)F)c2)cc1C#Cc1cnc2[nH]ncc2c1`
A: 8.72

====

assay: Fraction unbound (fu) in human plasma; format: in vitro ADME; conditions: test concentration 80 ng/ml, read-out: fu (N=3)
Recorded endpoint: fraction unbound at 80 ng/ml
// return just the number, without any unit appended

Q: Please give measured fraction unbound at 80 ng/ml of the following entry: `Cc1ccc(C(=O)Nc2ccc(CN3CCN(C)CC3)c(C(F)(F)F)c2)cc1C#Cc1cnc2[nH]ncc2c1`
A: 0.0007

====

assay: pKa; assay type: physicochemical; conditions: read-out: pKa 1
Recorded endpoint: pKa

Q: Return reported pKa. Input molecule: Cc1ccc(C(=O)Nc2ccc(CN3CCN(C)CC3)c(C(F)(F)F)c2)cc1C#Cc1cnc2[nH]ncc2c1 [olverembatinib, Olverembatinib]
A: 2.9

====

target: CYP3A4 (Homo sapiens); experiment: Clinical DDI study with itraconazole and rifampicin in healthy American (White) subjects; conditions: human, plasma, oral, 20 mg, Cmax Obs., White healthy volunteers, fed, 20 mg SD, olverembatinib alone
Recorded endpoint: Cmax (ng/mL)
# unit: ng/mL | format: bare number

Q: Respond only with Cmax recorded for `Cc1ccc(C(=O)Nc2ccc(CN3CCN(C)CC3)c(C(F)(F)F)c2)cc1C#Cc1cnc2[nH]ncc2c1`
A: 5.26

====

system: CYP2B6; experiment: CYP2B6 mRNA induction in cultured human hepatocytes; assay type: cell-based; conditions: human, cultured human hepatocytes, human hepatocytes, mRNA, mean of two lots; read-out: IndC50 CYP2B6 (Mean EC50)
Recorded endpoint: pEC50
Expect pEC50 as a plain number equal to -log10 of the molar concentration.

Q: Name the recorded pEC50 of the compound listed here: `Cc1ccc(C(=O)Nc2ccc(CN3CCN(C)CC3)c(C(F)(F)F)c2)cc1C#Cc1cnc2[nH]ncc2c1`
A: 6.25

====

test: Human mass balance study with [14C]olverembatinib (NCT04126707); format: in vivo; details: male, human, plasma, oral; Chinese healthy volunteers, fasting, 26.85 mg SD; read-out: Tmax Obs. (median)
Recorded endpoint: Tmax (h)
Answer in h, number only, no unit symbol.

Q: Tell me measured Tmax for `Cc1ccc(C(=O)Nc2ccc(CN3CCN(C)CC3)c(C(F)(F)F)c2)cc1C#Cc1cnc2[nH]ncc2c1` please.
A: 6

Values from paper PMC9792776
